B1: TEKT4 (parent)
chain: LREKLLEAEQSLRNLEDIHMSLEK

Variants of: B1
assay_text: protein stability index of a GFP-peptide fusion (GPS, HEK-293T) (PSI 1-6); higher = more stable;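 also: lentivirally expressed fusions sorted by FACS into six bins by GFP to DsRed ratio, PSI derived from sequencing read proportions per bin multiplied by bin number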
settings: c terminus: a fixed tail appended
assay_endpoint: protein stability index
One number for each entry.

>>> numeric_value("L6T")
2.94
>>> numeric_value("E9P")
3.52
>>> numeric_value("Q10A")
3.49
>>> numeric_value("A8R")
3.92
>>> numeric_value("E7Y")
2.08

Count: 3. Required value per item: protein stability index.
1. Q10H
2. L1P
3. H19S

Output line:
2.23
4.12
3.43
